Molecular target: UniProt P35372
Assay: cell-based
Conditions: RC50, β-arrestin; EC20 morphine agonism of MOR
Readings of EC50 for the listed compounds

compound	experimentalTarget	EC50 / µM
Fc1cnc(Cl)nc1N1CCCCC1c1cccc(C(F)(F)F)c1 (single isomer, unassigned) [compound 8]	UniProt P35372	7.11
Fc1cnc(Cl)nc1N1CCCCC1c1cccc(C(F)(F)F)n1 (centres unmarked) [compound 123]	UniProt P35372	14.1
Fc1ccc(Cl)cc1CN1CCCCC1c1cccc(C(F)(F)F)n1 (centres unmarked) [compound 2]	UniProt P35372	9.59
COc1ccc(C2CCCCN2S(=O)(=O)c2ccc(Cl)cc2)cc1Br (single isomer, unassigned) [compound 6]	UniProt P35372	8.25
Fc1cnc(Cl)nc1N1CCCCC1c1cccc(C(F)(F)F)c1 (single isomer, unassigned) [compound 9]	UniProt P35372	10.7

----------
Readings of pEC50 for the listed molecules
Biological target: mu opioid receptor (MOR) (Homo sapiens, UniProt P35372)
Sequence (P35372 whole entry): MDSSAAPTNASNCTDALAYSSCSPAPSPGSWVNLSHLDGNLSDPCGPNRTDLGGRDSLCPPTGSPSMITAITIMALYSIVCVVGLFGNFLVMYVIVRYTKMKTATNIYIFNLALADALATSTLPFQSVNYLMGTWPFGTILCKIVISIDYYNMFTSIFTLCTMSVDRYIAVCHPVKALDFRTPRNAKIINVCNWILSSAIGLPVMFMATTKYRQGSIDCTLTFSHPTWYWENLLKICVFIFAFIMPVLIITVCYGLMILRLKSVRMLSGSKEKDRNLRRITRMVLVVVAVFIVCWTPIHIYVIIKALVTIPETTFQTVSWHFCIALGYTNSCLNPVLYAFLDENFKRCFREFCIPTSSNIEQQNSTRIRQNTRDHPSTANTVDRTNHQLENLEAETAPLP
Experiment: Hit Hunter cAMP signaling assay (adenylyl cyclase inhibition), PAM mode with EC20 endomorphin-1
Format: cell-based
Details: cAMP EC50, adenylyl cyclase inhibition
pEC50: −log10 of the molar value.
measurementName: pEC50

molecule	measurementName	experimentalValue
Fc1cc(C2CCCCN2Cc2cc(Cl)ccc2F)cc(C(F)(F)F)c1 (stereo not shown)	pEC50	5.68 to 6.15
Fc1cnc(Cl)nc1N1CCCCC1c1ccncn1 (stereo not shown)	pEC50	> 6.15
COc1cccc(CN2CCCCC2c2cccc(C(F)(F)F)n2)c1 (stereo not shown)	pEC50	< 5.68
Fc1cnc(Cl)nc1N1C2CCC(C2)C1c1cccc(C(F)(F)F)n1 (stereo not shown)	pEC50	< 5.68
Fc1ccc(C(F)(F)F)cc1C1CCCCN1c1nc(Cl)ncc1F (stereo not shown)	pEC50	> 6.15
Fc1cccc(C2CCCCN2c2nc(Cl)ccc2F)n1 (stereo not shown)	pEC50	5.68 to 6.15
Cc1cc(C)cc(N2CCCCC2c2ccc(F)c(Cl)c2)c1 (stereo not shown)	pEC50	< 5.68
Fc1ccc(C2CCCCN2Cc2cc(Cl)ccc2Cl)cc1Cl (stereo not shown)	pEC50	> 6.15
Fc1cnc(Cl)nc1N1CCCCC1c1ccc2nccn2c1 (stereo not shown)	pEC50	> 6.15
Cc1ccc(C2CCCCN2c2nc(Cl)ncc2F)cc1Br (stereo not shown)	pEC50	> 6.15

----------
Biological target: mu opioid receptor (MOR) (Homo sapiens, UniProt P35372)
Test: PathHunter β-arrestin recruitment assay, PAM mode with EC20 endomorphin-1
Type: cell-based
Conditions: β-arrestin recruitment; read-out: β-arr. EC50
pEC50: −log10 of the molar value.
measurementName: pEC50

compound	experimentalValue
Fc1cc(C2C3CCC(C3)N2c2nc(Cl)ncc2F)cc(C(F)(F)F)c1 (stereo not drawn)	< 5.68
O=S(=O)(c1cc(F)ccc1F)N1CCCC(F)C1c1ccc(F)c(Br)c1 (stereo not drawn)	< 5.68
O=S(=O)(c1ccc(Cl)cc1)N1CCCCC1c1ccc(Cl)c(C(F)(F)F)c1 (racemic) [compound 64]	5.68 to 6.15
Oc1ncc(F)c(N2CCCCC2c2cccc(C(F)(F)F)c2)n1 (stereo not drawn) [compound 350]	> 6.15
Cc1cc(C)cc(N2CCCCC2c2ccc(F)c(Cl)c2)c1 (stereo not drawn)	< 5.68
CC1CCN(S(=O)(=O)c2ccc(Cl)cc2)C1c1ccc(F)c(C#N)c1 (mixture of isomers)	5.68 to 6.15
CC1CC(c2cccc(C(F)(F)F)n2)N(c2nc(Cl)ncc2F)C1 (single isomer, unassigned)	< 5.68
CC1CCN(S(=O)(=O)c2ccc(Cl)cc2)C1c1ccc(F)c(Br)c1 (stereo not drawn)	5.68 to 6.15
Fc1ccc(Cl)cc1C1CCCCN1c1nc(Cl)ncc1F (stereo not drawn)	> 6.15
Fc1cnc(Cl)nc1N1CCCCC1c1cccnc1F (stereo not drawn)	> 6.15
Fc1ccc(Cl)cc1CN1C2CCC(C2)C1c1cccc(C(F)(F)F)n1 (stereo not drawn)	< 5.68
FC(F)(F)c1cccc(C2CCCCN2c2ccnc(Cl)n2)c1 (stereo not drawn)	< 5.68
CCC1CCCN(c2nc(Cl)ncc2F)C1c1ccc(OC)c(Br)c1 (stereo not drawn) [compound 248]	< 5.68
COc1ccc(C2CC(F)CN2S(=O)(=O)c2ccc(Cl)cc2)cc1Br (single isomer, unassigned)	< 5.68
Fc1cc(C2CC(C(F)(F)F)CN2c2nc(Cl)ncc2F)cc(C(F)(F)F)c1 (stereo not drawn)	< 5.68
COc1ccc(C2C(F)CCN2S(=O)(=O)c2ccc(Cl)cc2)cc1Br (stereo not drawn)	< 5.68
COc1cnc(C2CCCCN2c2nc(Cl)ncc2F)nc1Cl (stereo not drawn)	> 6.15
Fc1cnc(Cl)nc1N1CCCCC1c1cccc2ccncc12 (stereo not drawn)	< 5.68

The measured values listed here are drawn from patent US11071731B2.
